Entries and their glass transition temperature values follow.

{"molecule": "*Oc1ccccc1C(=O)OC(=O)c1ccccc1OC(=O)CCCCCCCC(*)=O (repeat unit)", "glass transition temperature, °C": 25.00}
{"molecule": "*c1ccc(-c2cc(-c3ccc(OCCCC#N)cc3)cc(-c3ccc(-n4c(=O)c5cc6c(=O)n(*)c(=O)c6cc5c4=O)cc3)n2)cc1 (repeat unit)", "glass transition temperature, °C": 345.00}
{"molecule": "*C(=O)Nc1ccc(NC(=O)c2ccc3c(c2)C(=O)N(c2cc(-c4nc5ccccc5s4)cc(N4C(=O)c5ccc(*)cc5C4=O)c2)C3=O)cc1 (repeat unit)", "glass transition temperature, °C": 356.00}
{"molecule": "*Oc1ccc(-c2ccc(OC3(F)C(*)(F)C(F)(F)C3(F)F)cc2)cc1 (repeat unit)", "glass transition temperature, °C": 161.00}
{"molecule": "*CCCCCCCCCCOc1ccc(/C=C/c2ccc(OCCCCCCCCCCOP(=O)(O*)OCCCCCCCCCCOc3ccc(/N=N/c4ccc([N+](=O)[O-])cc4)cc3)cc2)cc1 (repeat unit)", "glass transition temperature, °C": 50.00}
{"molecule": "*CCN(CCOC(=O)c1cc(OCCN(C)c2ccc(S(=O)(=O)CCCCCCCC)cc2)cc(C(=O)O*)c1)c1ccc(S(=O)(=O)C(F)(F)C(F)(F)C(F)(F)C(F)(F)C(F)(F)C(F)(F)C(F)(F)C(F)(F)F)cc1 (repeat unit)", "glass transition temperature, °C": 80.00}
{"molecule": "*CC(*)(C)C(=O)OCCO[Si](C)(C)C (repeat unit)", "glass transition temperature, °C": 89.00}
{"molecule": "*CCOCCOCCN1C(=O)c2ccc(C(=O)Oc3ccc(OC(=O)c4ccc5c(c4)C(=O)N(*)C5=O)c(-c4ccccc4)c3)cc2C1=O (repeat unit)", "glass transition temperature, °C": 105.00}
{"molecule": "*CC(*)(C)C(=O)OCCCCc1ccccc1 (repeat unit)", "glass transition temperature, °C": 9.00}
{"molecule": "*OC(COC(=O)c1ccc(C(*)=O)c2ccccc12)COc1ccc(/N=N/c2ccc(C#N)cc2)cc1 (repeat unit)", "glass transition temperature, °C": 117.00}
{"molecule": "*c1ccc2c(c1)C(CCCCCC)(CCCCCC)c1cc(-c3ccc4c(c3)c3cc(*)ccc3n4-c3ccccc3)ccc1-2 (repeat unit)", "glass transition temperature, °C": 170.00}
{"molecule": "*c1cccc(NC(=O)c2ccc(-c3ccc(C(=O)Nc4cccc(S(*)(=O)=O)c4)c(C)c3)cc2C)c1 (repeat unit)", "glass transition temperature, °C": 260.00}
{"molecule": "*Oc1ccc(-c2ccc(Oc3c(F)c(F)c(COC(c4cccc(C(OCc5c(F)c(F)c(*)c(F)c5F)(C(F)(F)F)C(F)(F)F)c4)(C(F)(F)F)C(F)(F)F)c(F)c3F)cc2)cc1 (repeat unit)", "glass transition temperature, °C": 110.00}
{"molecule": "*c1ccc(-c2sc(-c3ccc(-c4cc(SCCCC)c(*)s4)cc3)cc2SCCCC)cc1 (repeat unit)", "glass transition temperature, °C": 26.40}
{"molecule": "*CC(*)c1ccccc1C(=O)Nc1ccccc1 (repeat unit)", "glass transition temperature, °C": 191.00}
{"molecule": "*C(F)(F)C(*)(F)Cl (repeat unit)", "glass transition temperature, °C": 69.47}
{"molecule": "*Oc1ccc(CC(NC(=O)CCc2ccc(OC(=O)CCCCCCC(*)=O)cc2)C(=O)OCCCCCC)cc1 (repeat unit)", "glass transition temperature, °C": 27.00}
{"molecule": "*c1ccc(Oc2ccc(N3C(=O)c4ccc([Si](C)(C)O[Si](C)(C)c5ccc6c(c5)C(=O)N(c5ccc(Oc7ccc(-c8nnc(*)o8)cc7)cc5)C6=O)cc4C3=O)cc2)cc1 (repeat unit)", "glass transition temperature, °C": 190.50}
{"molecule": "*c1ccc(Sc2ccc(Sc3ccc(Sc4ccc(S(*)=O)cc4)cc3)cc2)cc1 (repeat unit)", "glass transition temperature, °C": 133.00}
{"molecule": "*C(=O)Nc1cccc(C(=O)Nc2cccc(NC(=O)c3ccc4[nH]c(-c5ccc(-c6nc7cc(*)ccc7[nH]6)cc5)nc4c3)c2)c1 (repeat unit)", "glass transition temperature, °C": 312.00}
{"molecule": "*Oc1ccc(CC(NC(=O)CCc2ccc(OC(=O)COCCOCC(*)=O)cc2)C(=O)OCCCCCC)cc1 (repeat unit)", "glass transition temperature, °C": 28.00}
{"molecule": "*c1cc(C(=O)Nc2ccc(-c3nnc(*)o3)cc2)cc(N2C(=O)c3ccccc3C2=O)c1 (repeat unit)", "glass transition temperature, °C": 324.00}
{"molecule": "*CCC(C)(C)CC(C)COC(=O)c1ccc(C(=O)O*)cc1 (repeat unit)", "glass transition temperature, °C": -9.00}
{"molecule": "*NC(CCC(=O)OCCCCC)C(*)=O (repeat unit)", "glass transition temperature, °C": -20.00}
{"molecule": "*Oc1ccc(CC(NC(=O)CCc2ccc(OC(=O)CCCCCCC(*)=O)cc2)C(=O)OCCOCCOCC)cc1 (repeat unit)", "glass transition temperature, °C": 6.00}
{"molecule": "*Oc1cc(CC)cc(OC(=O)c2cccc(C(*)=O)c2)c1 (repeat unit)", "glass transition temperature, °C": 138.00}
{"molecule": "*C(=O)c1ccc2nc(-c3ccccc3)c(-c3ccc(-c4nc5ccc(*)cc5nc4-c4ccccc4)cc3)nc2c1 (repeat unit)", "glass transition temperature, °C": 320.00}
{"molecule": "*C(=O)c1ccc2c(c1)C(=O)N(c1ccc(Oc3ccc(C(=O)c4cccc(C(=O)c5ccc(Oc6ccc(N7C(=O)c8ccc(*)cc8C7=O)cc6C(F)(F)F)cc5)n4)cc3)c(C(F)(F)F)c1)C2=O (repeat unit)", "glass transition temperature, °C": 225.20}

---

Entries and their glass transition temperature values follow.
measured-parameter: glass transition temperature (°C)

{"molecule": "*C(F)(F)C(*)(F)c1ccccc1 (repeat unit)", "meas-value": 206.00}
{"molecule": "*C(=O)c1ccc2c(c1)C(=O)N(c1ccc3c(c1)Cc1cc(N4C(=O)c5ccc(*)cc5C4=O)ccc1-3)C2=O (repeat unit)", "meas-value": 341.50}
{"molecule": "*CCOC(=O)NCC1(C)CC(NC(=O)O*)CC(C)(C)C1 (repeat unit)", "meas-value": 84.00}
{"molecule": "*N=P(N=P(N=S(*)(=O)Nc1ccccc1)(Nc1ccccc1)Nc1ccccc1)(Nc1ccccc1)Nc1ccccc1 (repeat unit)", "meas-value": 82.00}
{"molecule": "*CC(O)COC(=O)CCCCCCCCC(=O)OCC(O)COc1ccc(/C=C(\\C)c2ccc(O*)cc2)cc1 (repeat unit)", "meas-value": 30.00}
{"molecule": "*Oc1ccc(Oc2ccc(S(=O)(=O)c3ccc(Oc4ccc(Oc5cccc(*)n5)cc4)cc3)cc2)cc1 (repeat unit)", "meas-value": 158.00}
{"molecule": "*c1ccc(Oc2ccc(C(=O)c3ccc(C(=O)c4ccc(Oc5ccc(-c6nc(-c7ccc(-c8nc(*)c(-c9ccccc9)[nH]8)cc7)[nH]c6-c6ccccc6)cc5)cc4)cc3)cc2)cc1 (repeat unit)", "meas-value": 278.00}

---

{"compound": "*CC(F)(F)C(F)(F)COC(=O)NCC(F)(F)C(F)(F)C(F)(F)C(F)(F)CNC(=O)O* (repeat unit)", "glass transition temperature / °C": 38.00}
{"compound": "*c1ccc(Oc2cccc(NC(=O)c3cc(C(=O)Nc4cccc(Oc5ccc(-c6nnc(*)o6)cc5)c4)cc(N4C(=O)c5c(Cl)c(Cl)c(Cl)c(Cl)c5C4=O)c3)c2)cc1 (repeat unit)", "glass transition temperature / °C": 275.00}
{"compound": "*c1cc(-c2sc(-c3cc(CCCCCCC)c(*)s3)cc2CCCCCCC)c2cccccc1-2 (repeat unit)", "glass transition temperature / °C": 56.00}
{"compound": "*Oc1ccccc1C(=O)OC(=O)c1ccccc1OC(=O)c1cccc(C(*)=O)c1 (repeat unit)", "glass transition temperature / °C": 105.00}
{"compound": "*NC(CCC(=O)OCC)C(*)=O (repeat unit)", "glass transition temperature / °C": 0.00}
{"compound": "*c1ccc(-c2ccc(-c3ccc(-n4c(=O)c5c(C(F)(F)F)c6c(=O)n(*)c(=O)c6c(C(F)(F)F)c5c4=O)cc3)cc2)cc1 (repeat unit)", "glass transition temperature / °C": 364.00}
{"compound": "*c1ccc(C2(c3ccc(-c4cc(-c5ccccc5)c5cc(Oc6ccc7nc(*)cc(-c8ccccc8)c7c6)ccc5n4)cc3)c3ccccc3-c3ccccc32)cc1 (repeat unit)", "glass transition temperature / °C": 310.00}

---

{"compound": "*CCC(C)O* (repeat unit)", "measurement-unit": "°C", "glass transition temperature": -50.00}
{"compound": "*c1ccc(Oc2ccc(-c3ccc(Oc4ccc(N5C(=O)c6ccc(Oc7ccc(C8(c9ccc(Oc%10ccc%11c(c%10)C(=O)N(*)C%11=O)cc9)CCC(c9ccccc9)CC8)cc7)cc6C5=O)cc4)cc3C)c(C)c2)cc1 (repeat unit)", "measurement-unit": "°C", "glass transition temperature": 226.00}
{"compound": "*CCN(CCOC(=O)c1ccc(C(=O)O*)c(OCCC)c1)c1ccc(/N=N/c2ccc(-c3nc4ccccc4o3)cc2)cc1 (repeat unit)", "measurement-unit": "°C", "glass transition temperature": 117.00}
{"compound": "*c1ccc(Oc2ccc(Oc3ccc(Oc4ccc(-c5cnc6ccc(-c7ccc8ncc(*)nc8c7)cc6n5)cc4)cc3)cc2)cc1 (repeat unit)", "measurement-unit": "°C", "glass transition temperature": 216.00}
